B1: Tissue-type plasminogen activator, P00750 (parent)
chain: MDAMKRGLCCVLLLCGAVFVSPSQEIHARFRRGARSYQVICRDEKTQMIYQQHQSWLRPVLRSNRVEYCWCNSGRAQCHSVPVKSCSEPRCFNGGTCQQALYFSDFVCQCPEGFAGKCCEIDTRATCYEDQGISYRGTWSTAESGAECTNWNSSALAQKPYSGRRPDAIRLGLGNHNYCRNPDRDSKPWCYVFKAGKYSSEFCSTPACSEGNSDCYFGNGSAYRGTHSLTESGASCLPWNSMILIGKVYTAQNPSAQALGLGKHNYCRNPDGDAKPWCHVLKNRRLTWEYCDVPSCSTCGLRQYSQPQFRIKGGLFADIASHPWQAAIFAKHRRSPGERFLCGGILISSCWILSAAHCFQERFPPHHLTVILGRTYRVVPGEEEQKFEVEKYIVHKEFDDDTYDNDIALLQLKSDSSRCAQESSVVRTVCLPPADLQLPDWTECELSGYGKHEALSPFYSERLKEAHVRLYPSSRCTSQHLLNRTVTDNMLCAGDTRSGGPQANLHDACQGDSGGPLVCLNDGRMTLVGIISWGLGCGQKDVPGVYTKVTNYLDWIRDNMRP

Variants of: B1
Measurement conditions: Homo sapiens; pH 4.5; 64.3 °C; Thermal; DSC; Citric acid trisodium citrate 0.1 M 0.1 M; reversible: yes; structure 1TPK; whole UniProt chain shown
Overview of recorded ddG of mutation (higher = less stable) for various variants
Record the value in kcal/mol, omitting the unit from your answer.

# example entries with known answers
Alteration: V280M
Test value: 2.2
--
Alteration: V280I
Test value: -0.3
--
Alteration: V280T
Test value: 1
--
Alteration: V280L
Test value: 1.9

# evaluate next
Documented ddG of mutation (higher = less stable) of V280S : 2.4

Origin of values: FireProtDB (doi:10.1021/bi00435a062)
